Data origin: patent US20250297013A1

Target: T1, HLA-G antigen produced in Example 1 (signal peptide-b2m-HLA-G-6xHis; monomer or dimer not stated) (human)
T1 construct: also called b2m-HLA-G antigen
Experiment: ILT2 block ELISA: competitor ILT-2-Fc coated, antigen of Example 1 pre-mixed with antibody dilutions, anti-His-HRP detection
QUANTITY_NAME: IC50
Hey, just the number and the unit after it is fine.

BINDER	IC50
Anti-HLA-G antibody 3 (antibody, IgG1, V domains shown) VH: EVQLLESGGGLVQPGGSLRLSCAASGFTFSDYSMSWVRQAPGKGLEWVSAISPDRSLEYYADSVKGRFTISRDNSKNTLYLQMNSLRAEDTAVYYCAKGPRHLTNNIFDYWGQGTLVTVSS VL: QFVLTQPPSVSAAPGQKVTISCSGSSSNIGHSYVSWYQQLPGTAPKLLIYGNIHRPSGVPDRFSGSTSGTSASLAITGLQADDEADYYCGVWDSSLSAVVFGGGTKLTVL	164 nM
Anti-HLA-G antibody 4 (antibody, IgG1, V domains shown) VH: EVQLLESGGGLVQPGGSLRLSCAASGFTFSDYSMSWVRQAPGKGLEWVSAISPDSGSKYYADSVKGRFTISRDNSKNTLYLQMNSLRAEDTAVYYCAKGPRHLTNNIFDYWGQGTLVTVSS VL: QSVLTQPPSASGTPGQRVTISCTGSSSNIGSNYVSWYQQLPGTAPKLLIYADSNRPSGVPDRFSGSKSGTSASLAISGLRSEDEADYYCASWDYSLSGYVFGGGTKLTVL	144 nM
Anti-HLA-G antibody 1 (antibody, V domains shown) VH: EVQLLESGGGLVQPGGSLRLSCAASGFTFSDYAMSWVRQAPGKGLEWVSVISHDGDRVYYADSVKGRFTISRDNSKNTLYLQMNSLRAEDTAVYYCAKGPRRIANAIFDYWGQGTLVTVSS VL: QLVLTQPPSVSGAPGQKVTISCSGSSSNIGHSYVSWYQQLPGTAPKLLIYGDNNRPSGVPDRFSGSKSGTSASLAITGLQAEDEADYYCQSYDSSLSGYVFGTGTKVTVL	155 nM

Turning now to a further record.
What does the record list as IC50 for Anti-HLA-G antibody 2 (antibody, IgG1, V domains shown) VH: EVQLLESGGGLVQPGGSLRLSCAASGFTFSDYAMSWVRQAPGKGLEWVSVISHDGGSIYYADSVKGRFTISRDNSKNTLYLQMNSLRAEDTAVYYCAKGPRRIANAIFDYWGQGTLVTVSS VL: QFVLTQPPSVSAAPGQKVTISCSGSNSNIGNSYVSWYQQVPGAAPRLLIYGSTNRPSGVPDRFSGSKSGTSASLAITGLQAEDEADYYCQSYDSSLSGYVFGTGTKVTVL ?
146 nM
